Target: T1, human CXCR2 (human, UniProt P25025 1-360)
T1 construct: also called CXC chemokine receptor 2; hCXCR2
T1 sequence: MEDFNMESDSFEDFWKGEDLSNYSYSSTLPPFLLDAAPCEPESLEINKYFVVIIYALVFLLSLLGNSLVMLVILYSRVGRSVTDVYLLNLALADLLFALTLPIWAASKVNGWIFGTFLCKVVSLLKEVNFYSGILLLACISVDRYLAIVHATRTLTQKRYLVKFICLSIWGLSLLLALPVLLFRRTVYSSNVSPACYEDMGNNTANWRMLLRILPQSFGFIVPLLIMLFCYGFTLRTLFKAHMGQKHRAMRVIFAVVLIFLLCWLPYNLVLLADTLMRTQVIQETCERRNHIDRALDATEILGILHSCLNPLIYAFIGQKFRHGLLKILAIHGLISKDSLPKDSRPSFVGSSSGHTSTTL
Assay: flow cytometry, CXCR2-transfected Expi293F cells
property-name: EC50 (nM)

>>> experimental_value("BKO-4A8 combinatorial variant 7c (antibody, human IgG4 S228P, lambda, V domains shown, IgG4 S228P, lambda) VH: EVQLLESGGGLVQPGGSLRLSCAASGFTFSSSTQSWVRQPPGKGLEWVSAISGRGRSTYYADSVKGRFTISRDNSRNTLYLQMNSLRAEDTAVYYCAKQKGYWGQGILVTVSS VL: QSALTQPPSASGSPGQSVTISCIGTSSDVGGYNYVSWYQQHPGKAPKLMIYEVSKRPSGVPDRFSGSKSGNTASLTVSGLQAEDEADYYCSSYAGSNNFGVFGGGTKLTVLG")
1
>>> experimental_value("BKO-4A8 combinatorial variant 9c (antibody, human IgG4 S228P, lambda, V domains shown, IgG4 S228P, lambda) VH: EVQLLESGGGLVQPGGSLRLSCAASGFTFSSSTQSWVRQAPGKGLEWVSAISGRGRSTYYADSVKGRFTISRDNSKNTLYLQMNSLRAEDTAVYYCAIQKGYWGQGILVTVSS VL: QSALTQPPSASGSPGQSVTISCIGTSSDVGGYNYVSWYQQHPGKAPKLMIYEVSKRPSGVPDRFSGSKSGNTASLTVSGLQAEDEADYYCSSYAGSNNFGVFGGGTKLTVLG")
6.4
>>> experimental_value("BKO-4A8 combinatorial variant 10c (antibody, human IgG4 S228P, lambda, V domains shown, IgG4 S228P, lambda) VH: EVQLLESGGGLVQPGGSLRLSCAASGFTFSSSTMSWVRQAPGKGLEWVSAISGRGRNTYYADSVKGRFTISRDNSRNTLYLQMNSLRAEDTAVYYCAKQKGYWGQGILVTVSS VL: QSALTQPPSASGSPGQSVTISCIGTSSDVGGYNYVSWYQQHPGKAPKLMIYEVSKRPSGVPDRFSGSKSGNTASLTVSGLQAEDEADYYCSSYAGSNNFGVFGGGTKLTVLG")
0.5
>>> experimental_value("BKO-4A8 combinatorial variant 4b (antibody, human IgG4 S228P, lambda, V domains shown, IgG4 S228P, lambda) VH: EVQLLESGGGLVQPGGSLRLSCAASGFTFSSSTQSWVRQPPGKGLEWVSAISGRGRSTYYADSVKGRFTISRDNSRNTLYLQMNSLRAEDTAVYYCAIQKGYWGQGILVTVSS VL: QSALTQPPSASGSPGQSVTISCIGTSSDVGGYNYVSWYQQHPDKAPKLMIYEVSKRPSGVPDRFSGSKSGNTASLTVSGLQAEDEADYYCSSYAGSNNFGVFGGGTKLTVLG")
0.4

Source of measurements: patent US20240301076A1
